Reported values of IC50 for individual entries
# Target: human PDE9A2 (Homo sapiens)
# Construct: crude lysate used as enzyme source)
# Assay Explanation: PDE9A2 enzymatic activity assay (scintillation proximity assay)
# Measurement Parameters: specific IC50 value is within the given range

{"columns": ["Compound", "IC50"],
 "data": [
  ["CC(Cc1nc2c(cnn2C2CCC(F)(F)CC2)c(=O)[nH]1)C(F)(F)F (single isomer, unassigned) [Example 47]", "1 to 100 nM"]
]}

response.value for CC1(C)CC(Cc2nc3c(cnn3C3CCC(F)(F)CC3)c(=O)[nH]2)C(=O)O1 (racemic) [Example 28] (field: IC50) = 101 to 1500 nM

Data point: COC(=O)Cc1ccccc1Cc1nc2c(cnn2C2CCC(F)(F)CC2)c(=O)[nH]1 [Example 84] ; IC50 = 101 to 1500 nM

Quick note, IC50 for O=c1[nH]c(CC2CCCC2)nc2c1cnn2C1CCC(F)CC1 (centres unmarked) [Example 113] landed at 1 to 100 nM

Field IC50 (entry O=c1[nH]c(Cc2ccccc2-c2ccc(N3CCOCC3)nc2)nc2c1cnn2C1CCC(F)(F)CC1 [Example 75] ) reads 1 to 100 nM

IC50 reported for this compound COc1cccnc1Cc1nc2c(cnn2C2CCC(F)(F)CC2)c(=O)[nH]1 [Example 100] : 101 to 1500 nM

Briefly, IC50 measured for Cc1ccc(-c2ccccc2Cc2nc3c(cnn3C3CCC(F)(F)CC3)c(=O)[nH]2)cn1 [Example 73] : 1 to 100 nM

Data point: O=c1[nH]c(CC2CCCC2)nc2c1cnn2C1CCCC1O (mixture of isomers) [Example 10] ; IC50 = 1 to 100 nM

# IC50 of O=c1[nH]c(C(F)c2ccccc2-n2cccn2)nc2c1cnn2C1CCC(F)(F)CC1 (single isomer, unassigned) [Example 92] = 101 to 1500 nM

IC50 for N#Cc1ccc(-c2cc(F)ccc2Cc2nc3c(cnn3C3CCC(F)(F)CC3)c(=O)[nH]2)cn1 [Example 63] is 101 to 1500 nM

// recorded IC50 for O=c1[nH]c(Cc2ccccc2-n2cnnc2)nc2c1cnn2C1CCC(F)(F)CC1 [Example 108] : 1 to 100 nM

Reported IC50 ( CCOC(=O)NC1CCCC(n2ncc3c(=O)[nH]c(CC4CCCC4)nc32)C1 (mixture of isomers) [Example 17] ) = 1 to 100 nM

What the record says about O=c1[nH]c(Cc2ccc(F)cc2Br)nc2c1cnn2C1CCC(F)(F)CC1 [Example 44] : IC50 is 101 to 1500 nM

Per the record, CN1CCN(C(=O)Cc2ccccc2Cc2nc3c(cnn3C3CCC(F)(F)CC3)c(=O)[nH]2)CC1 [Example 80] has IC50 of 101 to 1500 nM

Measured IC50, Cn1cc(-c2ccccc2C(F)c2nc3c(cnn3C3CCC(F)(F)CC3)c(=O)[nH]2)cn1 (racemic) [Example 72-11] : 1 to 100 nM

Lab note: O=c1[nH]c(Cc2ccc(F)cc2-c2ccncc2)nc2c1cnn2C1CCC(F)(F)CC1 [Example 72] gave IC50 of 101 to 1500 nM

IC50 reading for O=c1[nH]c(Cc2ccccn2)nc2c1cnn2C1CCC(F)(F)CC1 [Example 1] : 1 to 100 nM

The value of IC50 measured for the compound O=c1[nH]c(Cc2ccccc2I)nc2c1cnn2C1CCC(F)(F)CC1 [Example 36] turned out to be 1 to 100 nM

Field IC50 (entry CCC(Cc1nc2c(cnn2C2CCC(F)(F)CC2)c(=O)[nH]1)C(F)(F)F (single isomer, unassigned) [Example 101] ) reads 1 to 100 nM

Notebook: Cn1nccc1-c1ccc(F)cc1Cc1nc2c(cnn2C2CCC(F)(F)CC2)c(=O)[nH]1 [Example 72-2] , IC50 read as 1 to 100 nM

Reported IC50 for COc1ccc(-c2ccc(F)cc2Cc2nc3c(cnn3C3CCC(F)(F)CC3)c(=O)[nH]2)cc1 [Example 72-5] was 1 to 100 nM

// O=c1[nH]c(C(F)c2ccccc2)nc2c1cnn2C1CCC(F)(F)CC1 (racemic) [Example 25] : IC50 value = 1 to 100 nM

* * *

# Target: human PDE9A2 (Homo sapiens)
# Construct: crude lysate used as enzyme source)
# Assay Explanation: PDE9A2 enzymatic activity assay (scintillation proximity assay)
# Measurement Parameters: specific IC50 value is within the given range
pIC50: −log10 of the molar value.
Property Measured: pIC50

// solved cases for pIC50 follow
{"columns": ["Molecule", "Result"],
 "data": [
  ["Cc1ncn(-c2ccccc2Cc2nc3c(cnn3C3CCC(F)(F)CC3)c(=O)[nH]2)n1", "7.00 to 9.00"],
  ["O=c1[nH]c(Cc2ccccn2)nc2c1cnn2C1CCCC(c2ccccc2)C1 (mixture of isomers)", "5.82 to 7.00"],
  ["CC(Cc1nc2c(cnn2C2CCC(F)(F)CC2)c(=O)[nH]1)C(=O)N1CCCCC1 (centres unmarked)", "5.82 to 7.00"],
  ["O=c1[nH]c(Cc2ccccc2-c2ccnc(F)c2)nc2c1cnn2C1CCC(F)(F)CC1", "7.00 to 9.00"],
  ["O=c1[nH]c(Cc2cccc(Cl)c2)nc2c1cnn2C1CCC(F)(F)CC1", "7.00 to 9.00"]
]}

Entry COc1ccc(-c2ccc(F)cc2Cc2nc3c(cnn3C3CCC(F)(F)CC3)c(=O)[nH]2)cn1 : pIC50 on human PDE9A2 (Homo sapiens) = 7.00 to 9.00

Tested on human PDE9A2 (Homo sapiens): COc1ccc(-c2ccccc2Cc2nc3c(cnn3C3CCC(F)(F)CC3)c(=O)[nH]2)cn1 . Observed pIC50: 7.00 to 9.00

Assay human PDE9A2 (Homo sapiens), sample O=c1[nH]c(Cc2ccccc2C2CC2)nc2c1cnn2C1CCC(F)(F)CC1 , pIC50 read: 7.00 to 9.00

Fill in: human PDE9A2 (Homo sapiens) pIC50 for CC1(C)CC(n2ncc3c(=O)[nH]c(CC4CC4)nc32)CC(C)(C)C1 = 5.82 to 7.00

Bench note, human PDE9A2 (Homo sapiens): O=c1[nH]c(Cc2cc(F)cc(F)c2)nc2c1cnn2C1CCC(F)(F)CC1 , pIC50 reads 7.00 to 9.00

Recorded pIC50 for CC(Cc1nc2c(cnn2C2CCC(F)(F)CC2)c(=O)[nH]1)C(F)(F)F (racemic) [Example 30] on human PDE9A2 (Homo sapiens) was 7.00 to 9.00

Value sought: pIC50, system human PDE9A2 (Homo sapiens), item NC1CCCC(n2ncc3c(=O)[nH]c(Cc4ccccc4OC(F)(F)F)nc32)C1 (racemic) . Result: 5.82 to 7.00

Form field pIC50 for item O=c1[nH]c(C(F)c2ccccc2-n2cccn2)nc2c1cnn2C1CCC(F)(F)CC1 (racemic) [Example 88] on human PDE9A2 (Homo sapiens): 5.82 to 7.00

Item: COc1cncc(-c2ccccc2Cc2nc3c(cnn3C3CCC(F)(F)CC3)c(=O)[nH]2)c1 | System: human PDE9A2 (Homo sapiens) | pIC50: 7.00 to 9.00

* * *

# Target: human PDE9A2 (Homo sapiens, UniProt O76083)
# Construct: made in house; host or cells: Sf9 insect cells (infected; crude lysate used as enzyme source)
# Sequence (O76083 1-533 isoform O76083-2): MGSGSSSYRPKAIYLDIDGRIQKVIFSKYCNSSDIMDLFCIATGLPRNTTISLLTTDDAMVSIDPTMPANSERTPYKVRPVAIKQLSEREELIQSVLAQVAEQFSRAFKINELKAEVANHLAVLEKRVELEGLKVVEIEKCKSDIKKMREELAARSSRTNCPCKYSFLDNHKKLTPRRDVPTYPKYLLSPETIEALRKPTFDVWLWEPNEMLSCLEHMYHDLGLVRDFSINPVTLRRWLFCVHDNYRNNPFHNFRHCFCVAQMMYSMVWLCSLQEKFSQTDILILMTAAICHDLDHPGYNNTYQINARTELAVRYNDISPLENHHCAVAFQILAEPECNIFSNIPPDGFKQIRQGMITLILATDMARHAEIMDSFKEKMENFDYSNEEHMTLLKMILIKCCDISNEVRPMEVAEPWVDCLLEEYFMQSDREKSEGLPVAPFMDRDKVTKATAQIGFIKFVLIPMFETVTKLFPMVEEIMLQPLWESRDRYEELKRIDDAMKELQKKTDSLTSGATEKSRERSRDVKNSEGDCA
# Assay Explanation: PDE9A2 enzymatic activity assay (scintillation proximity assay)
# Type: biochemical
# Measurement Parameters: at 10 μM; read-out: % Inhibition of PDE 9A2
Below: a set of entries, each annotated with reported inhibition at 10 µM.
Lab book: enter the figure in %, no units written.

{"columns": ["Molecule", "inhibition at 10 µM (%)"],
 "data": [
  ["O=c1[nH]c(Cc2ncccc2C2CC2)nc2c1cnn2C1CCC(F)(F)CC1", 97]
]}

Item O=c1[nH]c(Cc2cc(F)ccc2-c2cncc(F)c2)nc2c1cnn2C1CCC(F)(F)CC1 ; assay system human PDE9A2 (Homo sapiens, UniProt O76083); inhibition at 10 µM reported as 100

Measured inhibition at 10 µM for this entry COC(=O)Cc1ccccc1Cc1nc2c(cnn2C2CCC(F)(F)CC2)c(=O)[nH]1 on human PDE9A2 (Homo sapiens, UniProt O76083): 81

Response field inhibition at 10 µM (human PDE9A2 (Homo sapiens, UniProt O76083)) for item O=C(O)Cc1ccccc1Cc1nc2c(cnn2C2CCC(F)(F)CC2)c(=O)[nH]1 : 85

Per the reported human PDE9A2 (Homo sapiens, UniProt O76083) data, Nc1ccccc1Cc1nc2c(cnn2C2CCC(F)(F)CC2)c(=O)[nH]1 has inhibition at 10 µM of 100

The reported inhibition at 10 µM value, human PDE9A2 (Homo sapiens, UniProt O76083), for CC(=O)NC1CCCC(n2ncc3c(=O)[nH]c(CC4CCCC4)nc32)C1 (racemic) reads 95

human PDE9A2 (Homo sapiens, UniProt O76083) data for COc1cc(-c2cc(F)ccc2Cc2nc3c(cnn3C3CCC(F)(F)CC3)c(=O)[nH]2)ccn1 ; its inhibition at 10 µM: 95

inhibition at 10 µM on human PDE9A2 (Homo sapiens, UniProt O76083) for COc1ccc(-c2ccc(F)cc2Cc2nc3c(cnn3C3CCC(F)(F)CC3)c(=O)[nH]2)cn1 is 101
